Assign level, % of control at 50 µM to each entry below.
tested on: Caco-2; test: Effect in human Caco-2 cells assessed as IL-1-beta-induced IL8 production relative to control at 50 uM after 24 hrs by ELISA; conditions: Caco-2, 24 h
Write the number in % without appending the unit.

Value of measured level, % of control at 50 µM for the entry N=c1c(-c2ccccc2)nc2c[nH]c(-c3ccc(O)cc3)cn1-2 : 56

level, % of control at 50 µM recorded for this compound, CON(C)C(=O)C(C)c1ccc(CC(C)C)cc1 (stereo unspecified) , is 55

Reported level, % of control at 50 µM for CC(C)Cc1ccc(C(C)C(=O)/C=N/O)cc1 (stereo unspecified) was 290

Sure, the documented level, % of control at 50 µM for CC(C)Cc1ccc(C(C)C(=O)n2nnc3ccccc32)cc1 (stereo unspecified) is 76

So, CC(C)Cc1ccc(C(C)C(=O)CCl)cc1 (stereo unspecified) ? Its level, % of control at 50 µM was 70

// field: level, % of control at 50 µM; key: Oc1ccc(-c2cn3c(O)c(-c4ccccc4)nc3cn2)cc1 ; value = 65

Data credit: ChEMBL document CHEMBL1240427
